All figures here come from the supplement of paper PMC12042874.

# experimental_protocol: amyloid nucleation score (Sup35N fusion, yeast selection) (log enrichment); library NNK2; higher = more nucleation; inactive = no reads after selection;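 also: zero at mode of non-aggregating sequences after 7 days selection at 30°C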
Quick rule: amyloid nucleation score of at least 0.2 means TRUE, below that means FALSE.

Example entries begin here.
{"columns": ["residues", "assigned_class"],
 "data": [
  ["NQKSLFVARETSTMFPSPYV", "FALSE"],
  ["TYLMSFICNNLRVDIANINR", "FALSE"]
]}

Reported amyloid nucleation score reaches at least 0.2 for `ANKTSPICSCVFNEL` ?
TRUE

Reported amyloid nucleation score reaches at least 0.2 for `VGRGASRNFSCFSLVKFREK` ?
TRUE

Reported amyloid nucleation score reaches at least 0.2 for `RLLAGIFLEEKFYPRPSDIL` ?
TRUE

Reported amyloid nucleation score reaches at least 0.2 for `YCNYVTRDSFAFMSSFFMSA` ?
FALSE

Reported amyloid nucleation score reaches at least 0.2 for `VVEFNVLHDDLEVQDKT` ?
FALSE

Reported amyloid nucleation score reaches at least 0.2 for `FTFTRQSAGAHRYDIFVPRT` ?
FALSE

###

# experimental_protocol: amyloid nucleation score (Sup35N fusion, yeast selection) (log enrichment); library NNK3; higher = more nucleation; inactive = no reads after selection
value_type: amyloid nucleation score
Respond numerically, and do not add a unit to the figure.

Sample records with amyloid nucleation score:
{"columns": ["substance", "amyloid nucleation score"],
 "data": [
  ["CSGISSNGGLLTLGCCFCRG", 2.96],
  ["PFWKLKQKWVR", -1.1],
  ["VLDKVKWTLLCNGRRAVAPW", -0.089],
  ["QLCLCRKATLMSPTRLLQRA", -0.41],
  ["VHNYHERALKKHEGTTVRNF", 0.154]
]}

Field amyloid nucleation score (entry `VWCTSVVT` ) reads -0.149

Field amyloid nucleation score (entry `MKFRLTSSRQSDEAHFMWLT` ) reads 1.28

###

# experimental_protocol: amyloid nucleation score (Sup35N fusion, yeast selection) (log enrichment); library NNK1; higher = more nucleation; inactive = no reads after selection
Each entry belongs to exactly one class, chosen by where its amyloid nucleation score falls: low group = under -0.09, middle group = from -0.09 up to 0.5, high group = 0.5 and over

Example entries begin here.
{"columns": ["substance", "assigned_class"],
 "data": [
  ["VKYLRYFSSLDLLLIVLQAI", "middle group"],
  ["KACFPLI", "high group"],
  ["AYTLRYTFRYKYWLRYRLAG", "high group"],
  ["FLSRGSVWVVGSTFECHYEW", "middle group"],
  ["KIRLQVNSFMFVTPWAHFMV", "high group"]
]}

Using the reported amyloid nucleation score, which band applies to `KGWWKGLRARSQGPGVSDVW` ?
low group

Using the reported amyloid nucleation score, which band applies to `SGVLLINGVA` ?
high group

Using the reported amyloid nucleation score, which band applies to `GKWFVKRGRIRSAENCIRLF` ?
low group

Using the reported amyloid nucleation score, which band applies to `TGCGERWGQSMVIGVSL` ?
low group

Using the reported amyloid nucleation score, which band applies to `RRSQCSVEPGVWHRVRSFLV` ?
middle group

Using the reported amyloid nucleation score, which band applies to `MWSGLIDYMEYLLGWLCT` ?
high group

###

# experimental_protocol: amyloid nucleation score (Sup35N fusion, yeast selection) (log enrichment); library NNK2; higher = more nucleation; inactive = no reads after selection
value_type: amyloid nucleation score
Respond numerically, and do not add a unit to the figure.

Sample records with amyloid nucleation score:
{"columns": ["residues", "quantitative_readout"],
 "data": [
  ["LTRPCITV", 0.193],
  ["VLMKGRDPSVSGLKIEYLGN", 0.193],
  ["TLDNIRFKLQTAGTAIMWRR", 0.311]
]}

Consider the record given below.
Field amyloid nucleation score (entry `PLLSVVYTNLRSSDGRVV` ) reads 1.54
